Molecular target: T1, human LAG3 (construct not stated) (human, UniProt P18627 23-450, limits assumed)
T1 construct: also called human LAG3 protein; antigen
T1 sequence (looked up): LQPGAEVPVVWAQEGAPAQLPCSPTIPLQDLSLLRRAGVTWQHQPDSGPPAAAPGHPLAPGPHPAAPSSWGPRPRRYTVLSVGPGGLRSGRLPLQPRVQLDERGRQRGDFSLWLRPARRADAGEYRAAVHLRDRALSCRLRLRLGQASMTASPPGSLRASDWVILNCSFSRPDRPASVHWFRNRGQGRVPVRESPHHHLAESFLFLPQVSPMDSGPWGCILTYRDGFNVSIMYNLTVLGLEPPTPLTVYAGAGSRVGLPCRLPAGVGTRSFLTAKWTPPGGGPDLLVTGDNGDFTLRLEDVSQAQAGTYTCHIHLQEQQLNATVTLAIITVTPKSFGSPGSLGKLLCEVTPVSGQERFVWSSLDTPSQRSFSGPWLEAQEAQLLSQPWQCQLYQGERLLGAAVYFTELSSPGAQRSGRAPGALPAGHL
Test: BLI Octet Red 96, full kinetics, antigen 50-3.125 nM
# maps each entry to its kon
Report the figure along with its unit, number first.

| binder | kon |
| --- | --- |
| 147H-7 (antibody, V domains shown, Common light chain; human gamma 1 / kappa constant domains) VH: QVQLVQSGAEVKKPGASVKVSCKASGYTFTNYWLGWIKQAPGQGLEWIGDIYPGGDYINYNEKFKGKATLTADTSISTAYMELSRLRSDDTAVYFCARPNLPGDYWGQGTTVTVSS VL: DIVMTQSPLSLPVTPGEPASISCRSSKSLLHSNGITYLYWYLQKPGQSPQLLIYQVSNLASGVPDRFSGSGSGTDFTLKISRVEAEDVGVYYCAQNLELPWTFGGGTKVEIK | 118000 M⁻¹ s⁻¹ |

Read the next record carefully.
[ask] // fetch kon given entry 147H-14 (antibody, V domains shown, Common light chain; human gamma 1 / kappa constant domains) VH: EVQLVQSGAEVKKPGASVKVSCKASGYTFTNYWLGWIKQAPGQGLEWIGDIYPGGDYINYNEKFKGKATLTADTSISTAYMELSRLRSDDTAVYFCARPNLPGDYWGQGTTVTVSS VL: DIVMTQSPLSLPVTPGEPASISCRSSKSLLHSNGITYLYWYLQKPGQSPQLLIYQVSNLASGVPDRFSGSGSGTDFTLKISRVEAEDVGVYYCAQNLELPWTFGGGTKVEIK
[reply] 98700 M⁻¹ s⁻¹
